- Assay name: small-molecule binders of probe aInhba, primary screen, biochemical, small-molecule microarray, 635/667 nm fluorescence (AID 1148);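 also: score merges 667nm spot fluorescence with signal-to-noise for antibody binding to printed compounds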
- Conditions: higher = more signal

| Compound structure | composite z-score |
| --- | --- |
| O=C(CS)NCCCCCCNC(=O)[C@@H]1C[C@@H]2C(=O)N[C@@H](Cc3ccccc3)C(=O)N2[C@@H]1c1cccc(OCCO)c1 | -0.163 |
| O=C(NCCN1CCOCC1)[C@@H]1c2ccccc2C(=O)N(C2CCCCC2)[C@H]1c1ccc(CO)cc1 | -0.153 |
| COC(=O)[C@@]1(Cc2ccc(OC)cc2)[C@H]2c3cc(C(=O)N(C)C)n(Cc4ccc(S(C)(=O)=O)cc4)c3C[C@H]2CN1C(=O)c1ccccc1 | 0.431 |
| COCCOC(=O)N1C(=O)[C@@]2(c3cc(C#CCC(C(=O)OC)C(=O)OC)ccc31)[C@H](c1ccccc1OCCO)N1[C@H](c3ccccc3)[C@H](c3ccccc3)OC(=O)[C@H]1[C@@H]2C(=O)NC[C@H](O)c1ccccc1 | 0.158 |
| COc1cc2c(cc1OC)CN(C(=O)[C@@H]1[C@H]3C(=O)O[C@H](c4ccccc4)[C@H](c4ccccc4)N3[C@H](c3ccccc3OCCO)[C@@]13C(=O)Nc1ccc(C#CCCO)cc13)CC2 | 0.196 |
| O=C(c1ccccc1)N1Cc2ccccc2C[C@@]2(COC(c3ccc(OCCCO)cc3)=N2)C1=O | 0.167 |
